Provide the reported inhibition of growth at 50 ppm of each item.
Tested on: Rhizopus sp.
Test Name: In vitro percent disease control (radii of spore growth on agar)
Format: cell-based
Condition: Rhizopus, 50 ppm; read-out: % controlled, Rhi. sp.
Experimental: The compounds of this invention were dissolved respectively in acetone in an amount equal to 10% of the final volume and then in purified water at the concentration of 100 ppm and 50 ppm. Each of the solution was mixed with potato-sucrose-agar medium in a 6" petri dish and one of the fungi was spotted at the center of the dish. The dish was incubated in growth room for several days. The percent disease control was derived from the radii of spore growth. […]
Report as a plain number; the unit % is understood.

Entry COc1ccc([Si](C)(Cn2cncn2)C[Si](C)(C)c2ccc(Cl)cc2)cc1 (stereo not shown) under Rhizopus sp. had inhibition of growth at 50 ppm of 32

So the reported inhibition of growth at 50 ppm for C=CC[Si](C)(Cn1cncn1)C[Si](CC=C)(c1ccccc1)c1ccccc1 (stereo not shown) , on Rhizopus sp., turned out to be 50

Note to self: inhibition of growth at 50 ppm of C[Si](C)(Cc1ccc(F)cc1)C[Si](C)(Cn1cncn1)c1ccc(F)cc1 (stereo not shown) with Rhizopus sp. was 21

The measured inhibition of growth at 50 ppm that C[Si](C)(C)C[Si](Cn1cncn1)(c1ccc(F)cc1)c1ccc(F)cc1 showed for Rhizopus sp. is 24

====

Test system: Phytophthora capsisi
Test Name: In vitro percent disease control (radii of spore growth on agar)
Assay type: cell-based
Condition: Phytophthora; 50 ppm; read-out: % controlled, Phy ca.
So basically: inhibition of growth at 50 ppm at 20% or higher? That is 1. Lower than 20%? That is 0.

Lookup: Threshold query (inhibition of growth at 50 ppm >= 20%) on C=CC[Si](C[Si](C)(Cn1cncn1)c1ccc(F)cc1)(c1ccccc1)c1ccc(-c2ccccc2)cc1 (stereo not drawn)
Found: 1

Lookup: State whether the measured inhibition of growth at 50 ppm reaches 20%, counting equality as reaching it, for C[Si](C)(C[Si](C)(Cn1cncn1)c1ccc(Cl)cc1)c1ccc(Cl)cc1 (stereo not drawn)
Found: 0

Lookup: Check the entry C=CC[Si](Cn1cncn1)(C[Si](CC=C)(c1ccccc1)c1ccc(-c2ccccc2)cc1)c1ccc(F)cc1 (stereo not drawn) : does inhibition of growth at 50 ppm equal or exceed 20%?
Found: 1

Lookup: Tell me whether inhibition of growth at 50 ppm is at least 20% here: C=CC[Si](Cn1cncn1)(C[Si](CC=C)(c1ccc(F)cc1)c1ccc(-c2ccccc2)cc1)c1ccc(F)cc1 (stereo not drawn)
Found: 1

Lookup: Could you verify whether the entry C[Si](C)(Cc1ccc(F)cc1)C[Si](C)(Cn1cncn1)c1ccc(F)cc1 (stereo not drawn) shows inhibition of growth at 50 ppm of no less than 20%?
Found: 0

Lookup: API: above_or_equal(metric=inhibition of growth at 50 ppm, cutoff=20%) for item C[Si](C)(C[Si](Cn1cncn1)(c1ccc(F)cc1)c1ccc(F)cc1)c1ccc(Cl)cc1
Found: 0

====

Record form. Attribute: inhibition of growth at 50 ppm. Fill in for each entry.
System: Phytophthora capsisi
Test Name: In vitro percent disease control (radii of spore growth on agar)
Assay type: cell-based
Condition: Phytophthora; 50 ppm; read-out: % controlled, Phy ca.
Report only the number, with the unit % understood.

Please fill in: inhibition of growth at 50 ppm reported for C[Si](C)(C[Si](Cn1cncn1)(c1ccc(F)cc1)c1ccc(F)cc1)c1ccc(-c2ccccc2)cc1 = 6

Note to self: inhibition of growth at 50 ppm recorded for C=CC[Si](C)(Cn1cncn1)C[Si](CC=C)(c1ccccc1)c1ccc(-c2ccccc2)cc1 (stereo not shown) was 38

The molecule C=CC[Si](CC=C)(Cn1cncn1)C[Si](CC=C)(c1ccc(F)cc1)c1ccc(-c2ccccc2)cc1 (stereo not shown) showed inhibition of growth at 50 ppm equal to 40

For record CCOc1ccc([Si](Cn2cncn2)(C[Si](C)(C)c2ccc(F)cc2)c2ccc(OCC)cc2)cc1 the listed inhibition of growth at 50 ppm is 50

====

Test system: Rhizopus sp.
Test Name: In vitro percent disease control (radii of spore growth on agar)
Assay type: cell-based
Condition: Rhizopus, 50 ppm; read-out: % controlled, Rhi. sp.
Property Label: inhibition of growth at 50 ppm (%)
Please give a number only; it is taken to be in %.

Recorded inhibition of growth at 50 ppm (molecule C=CC[Si](CC=C)(Cn1cncn1)C[Si](CC=C)(c1ccc(F)cc1)c1ccc(-c2ccccc2)cc1 (stereo not drawn) ): 100

Reported inhibition of growth at 50 ppm of C=CC[Si](C[Si](C)(Cn1cncn1)c1ccc(OCC)cc1)(c1ccccc1)c1ccc(-c2ccccc2)cc1 (stereo not drawn) : 75

Record summary for C[Si](C)(C[Si](Cn1cncn1)(c1ccc(F)cc1)c1ccc(F)cc1)c1ccc(-c2ccccc2)cc1 : reported inhibition of growth at 50 ppm = 29

Values compiled from patent US5235061A.
